Biological target: T1, DOT1L (826-937) (human) (UniProt Q8TEK3)
T1 sequence: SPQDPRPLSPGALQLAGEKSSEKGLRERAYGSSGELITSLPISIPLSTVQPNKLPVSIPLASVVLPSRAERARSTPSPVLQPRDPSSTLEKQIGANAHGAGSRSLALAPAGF
Experiment: SPR; DOT1L construct immobilised on CM5 chip
property: Kd (nM)

| binder | Kd / nM |
| --- | --- |
| ENL (489-559), recombinant C-terminal domain of ENL (protein) GTYDKAYTDELVELHRRLMALRERNVLQQIVNLIEETGHFNVTNTTFDFDLFSLDETTVRKLQSCLEAVAT | 81 |
| AF9 (497-568), recombinant C-terminal domain of human AF9 (protein) GECDKAYLDELVELHRRLMTLRERHILQQIVNLIEETGHFHITNTTFDFDLCSLDKTTVRKLQSYLETSGTS | 78 |
